- measuredTarget: CYP2D6 (Homo sapiens, UniProt P10635)
- Construct: from tissue; host or cells: human liver microsomes
- Sequence (P10635 whole entry): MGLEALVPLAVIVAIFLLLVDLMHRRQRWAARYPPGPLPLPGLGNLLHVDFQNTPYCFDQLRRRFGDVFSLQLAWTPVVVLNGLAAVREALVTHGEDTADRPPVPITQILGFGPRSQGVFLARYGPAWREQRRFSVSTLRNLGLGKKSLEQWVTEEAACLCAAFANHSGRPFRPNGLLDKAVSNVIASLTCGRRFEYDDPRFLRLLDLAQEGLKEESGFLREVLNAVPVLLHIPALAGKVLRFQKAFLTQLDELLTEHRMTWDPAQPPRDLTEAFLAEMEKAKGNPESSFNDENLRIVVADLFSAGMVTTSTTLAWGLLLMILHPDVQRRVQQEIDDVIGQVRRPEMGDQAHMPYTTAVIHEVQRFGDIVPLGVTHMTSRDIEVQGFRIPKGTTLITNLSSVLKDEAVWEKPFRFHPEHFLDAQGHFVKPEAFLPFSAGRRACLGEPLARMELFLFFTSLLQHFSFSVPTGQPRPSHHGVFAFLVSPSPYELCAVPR
- procedureSummary: Inhibition of human liver microsomal CYP2D6
- Type: in vitro ADME
- testConditions: human liver microsomes, 10 μM test substance; read-out: Relative inhibition rate (%) CYP2D6
quantity: inhibition at 10 µM
Kindly report the value followed by its unit.

[
  {
    "smilesNotation": "CCCC[C@](C)(CO)Nc1nc(N)nc2cc(-c3cc(=O)n(C)cc3CN3CCCCC3)ccc12",
    "inhibition at 10 µM": "18.1%"
  },
  {
    "smilesNotation": "CCCC[C@](C)(CO)Nc1nc(N)nc2cc(-c3cc(=O)[nH]cc3CN(C)CCOC)cnc12",
    "inhibition at 10 µM": "9.5%"
  }
]

Moving on to the next compound.
[ask] Entry CCCC[C@](C)(CO)Nc1nc(N)nc2cc(-c3cc(=O)[nH]cc3CN(C)CCOC)ccc12 , system CYP2D6 (Homo sapiens, UniProt P10635): what inhibition at 10 µM was measured?
[reply] 12.5%

The origin of these recorded values is patent US20250163051A1.
